Test system: Wolbachia pipientis
Assay: Anti-Wolbachia Cell-Based Screen
Type: functional
Parameters: scale not given: in the data most compounds retested in dose-response had high values
Conditions: 5 µM
About 13,000 (27%) of roughly 48,000 compounds showed an effect of 50% or more. The list shows a part of the results.
Please go through the items and note down their Percent Effect.
Report the figure in % without appending any unit label.

INPUT: Please supply the value of reported Percent Effect for the item Cc1nnc2n1CCN(Cc1nc3ccccc3o1)C2
OUTPUT: 13.24

INPUT: Please supply the value of reported Percent Effect for the item COc1cc(N2CC[C@@H](OC)[C@@H]2Cc2cnn(C)c2)ncn1
OUTPUT: 110.7

INPUT: Please supply the value of reported Percent Effect for the item CCc1nc(CCNC(=O)NC2CC2)sc1C
OUTPUT: 2.732

INPUT: Please supply the value of reported Percent Effect for the item Cc1cc(N2CCC(c3nccn3Cc3cscn3)CC2)ccn1
OUTPUT: -23.28

INPUT: Please supply the value of reported Percent Effect for the item CCS(=O)(=O)N1CCC2(CC1)CCn1c(-c3cnn(C)c3)cnc12.O=C(O)C(F)(F)F
OUTPUT: 2.009

INPUT: Please supply the value of reported Percent Effect for the item Cc1ccc(S(C)(=O)=O)cc1C(=O)N1CCCC(n2cncn2)C1 (configuration not stated)
OUTPUT: 123.8

INPUT: Please supply the value of reported Percent Effect for the item CCOc1ccccc1CN(CC)Cc1ccc(S(=O)(=O)NC)cc1
OUTPUT: 14.99

INPUT: Please supply the value of reported Percent Effect for the item CC(=O)N1CCC2(CC1)c1ncc(-c3ccc(F)cc3)n1CCN2C
OUTPUT: 95.01

INPUT: Please supply the value of reported Percent Effect for the item COC(=O)c1cc(NCC(=O)NC(N)=O)cc(C(F)(F)F)c1
OUTPUT: 4.503

INPUT: Please supply the value of reported Percent Effect for the item COCCCNc1c(-c2ccc(Cl)cc2)c(=O)c1=O
OUTPUT: 75.4

INPUT: Please supply the value of reported Percent Effect for the item CCCc1nccn1-c1cccc(CN2CCCC2)c1
OUTPUT: -15.07

INPUT: Please supply the value of reported Percent Effect for the item CC(=O)N1CCC2(CC1)c1ncc(-c3ccccc3)n1CCN2C
OUTPUT: 98.56

INPUT: Please supply the value of reported Percent Effect for the item CC(Nc1ccc(CC(=O)N(C)C)cc1)C(=O)N(C)CCC#N (configuration not stated)
OUTPUT: 3.748

INPUT: Please supply the value of reported Percent Effect for the item CC(C)N(C)CCNC(=O)N(C)CC1CCOCC1
OUTPUT: -11.44

INPUT: Please supply the value of reported Percent Effect for the item CCc1ccc(CN(CC)Cc2ccc(S(=O)(=O)NC)cc2)cc1
OUTPUT: -10.93

INPUT: Please supply the value of reported Percent Effect for the item COCCN1CCN(Cc2ccc(Cl)cc2)[C@H]2CS(=O)(=O)C[C@H]21
OUTPUT: 3.262

INPUT: Please supply the value of reported Percent Effect for the item CO[C@@H]1CCN(c2ncccn2)[C@H]1Cc1ccccc1
OUTPUT: -5.923

###

Test system: Wolbachia pipientis
Assay: Anti-Wolbachia Cell-Based Screen
Type: functional
Parameters: scale not given: in the data most compounds retested in dose-response had high values
Settings: 5 µM
Hit rate of the full screen: of about 48,000 compounds, about 13,000 (27%) showed an effect of 50% or more. Some of the results follow.
MEASURED_METRIC: Percent Effect (%)
Report the figure in % without appending any unit label.

INPUT: Under Wolbachia pipientis, report Percent Effect for Cc1ccc(NC(=O)N2CCCC2)c(OCC2CCCO2)c1 (centres undefined)
OUTPUT: 97.39

INPUT: Under Wolbachia pipientis, report Percent Effect for CCc1cnc(N2C[C@H]3C[C@H](C(=O)N(C)C)[C@@H](C2)O3)nc1
OUTPUT: -23.08

INPUT: Under Wolbachia pipientis, report Percent Effect for COc1cc(NC(=O)CCn2nc(-c3cccs3)oc2=O)cc(OC)c1
OUTPUT: 106.6

INPUT: Under Wolbachia pipientis, report Percent Effect for Cc1ncsc1C(=O)NC1CCN(CC(=O)N(C)c2ccccc2)CC1
OUTPUT: -1.351

INPUT: Under Wolbachia pipientis, report Percent Effect for Cc1cnc(-c2cccc(-c3ccn(CCCO)n3)c2)nc1N(C)C
OUTPUT: 89.78

INPUT: Under Wolbachia pipientis, report Percent Effect for COCc1cc(NCCc2ccc(F)cc2)n2nccc2n1
OUTPUT: -0.9559

INPUT: Under Wolbachia pipientis, report Percent Effect for Cc1ccoc1C(=O)NCCOc1ncc(Cl)cc1Cl
OUTPUT: -11.16

INPUT: Under Wolbachia pipientis, report Percent Effect for Nc1ccnc(CNc2cc(F)ccc2OCC2CCCO2)n1 (centres undefined)
OUTPUT: -8.979

INPUT: Under Wolbachia pipientis, report Percent Effect for O=C(O)C(F)(F)F.O=C([C@H]1COC[C@H]2CN(c3ncc(F)cn3)C[C@H]21)N1CCOCC1
OUTPUT: -8.043

INPUT: Under Wolbachia pipientis, report Percent Effect for O=C(O)C(F)(F)F.O=C(c1cnccn1)N1C[C@@H]2CCN(c3cnccn3)C[C@@H]2C1
OUTPUT: 21.49

INPUT: Under Wolbachia pipientis, report Percent Effect for COC(=O)c1cccc(OCCn2nc(-c3cccs3)oc2=O)c1
OUTPUT: 2.853

INPUT: Under Wolbachia pipientis, report Percent Effect for O=C(Nc1ccccc1OCC1CCCCO1)c1ccc(O)nc1 (centres undefined)
OUTPUT: 2.227

INPUT: Under Wolbachia pipientis, report Percent Effect for Cc1cc(C)c2c(N3CCC(O)(Cn4ccnc4)CC3)ncnc2n1
OUTPUT: 6.34

INPUT: Under Wolbachia pipientis, report Percent Effect for COc1cc(S(=O)(=O)N2CCc3ccc(F)cc32)cc(C(=O)O)c1OC
OUTPUT: -3.468

INPUT: Under Wolbachia pipientis, report Percent Effect for O=C(CNc1cc(F)ccc1OCC1CCCO1)N1CCOCC1 (centres undefined)
OUTPUT: 97.1

INPUT: Under Wolbachia pipientis, report Percent Effect for O=C(Nc1cc(F)ccc1OCC1CCCO1)c1ccc(O)nc1 (centres undefined)
OUTPUT: 10.58

INPUT: Under Wolbachia pipientis, report Percent Effect for CCc1cnc(N2C[C@H]3C[C@H](C(=O)N4CCOCC4)[C@@H](C2)O3)nc1.O=C(O)C(F)(F)F
OUTPUT: 104.4

INPUT: Under Wolbachia pipientis, report Percent Effect for Fc1ccc2[nH]c(CO[C@H]3CN(CC4CC4)C[C@H]3F)nc2c1
OUTPUT: -6.025

INPUT: Under Wolbachia pipientis, report Percent Effect for CS(=O)(=O)N1CC[C@]2(C[C@H](Oc3ccccn3)CO2)C1.O=C(O)C(F)(F)F
OUTPUT: 1.633

INPUT: Under Wolbachia pipientis, report Percent Effect for COc1cc(CNc2cnn(CC(F)F)c2)ccc1O
OUTPUT: 77.84

INPUT: Under Wolbachia pipientis, report Percent Effect for O=C(C1CN(c2ncc(F)cn2)CC12CCOCC2)N1CCOCC1 (centres undefined)
OUTPUT: -0.101

INPUT: Under Wolbachia pipientis, report Percent Effect for O=C1CCC2(CCOC2)CN1Cc1nc2ccc(Cl)cc2[nH]1 (centres undefined)
OUTPUT: -5.094

INPUT: Under Wolbachia pipientis, report Percent Effect for CCn1cc(CN2C[C@H]3CC[C@@H]2CN(C(=O)C2CCC2)C3)cn1
OUTPUT: 1.465

INPUT: Under Wolbachia pipientis, report Percent Effect for CCOc1ccc(CN2C(=O)CC3(CCCC3)C2=O)nc1
OUTPUT: -27.44
